Tested on: Kidney
run_description: Drug level in NMRI mouse kidney assessed as standard uptake value at 3.7 MBq/mL, iv after 60 mins by gamma counting
Assay type: ADME, organism-based
study_conditions: in vivo, 1 h
quantity: SUV
Field format: numeric only.

q: Consider the compound shown here: [11CH3]Nc1ccc(-c2nc3ccc(O)cc3s2)cc1 What is its recorded SUV?
a: 3.3

q: Consider the compound shown here: CNc1ccc2nc(-c3ccc([18F])cc3)sc2c1 What is its recorded SUV?
a: 1.6

q: Consider the compound shown here: Nc1ccc2nc(-c3ccc([18F])cc3)sc2c1 What is its recorded SUV?
a: 0.6

q: Consider the compound shown here: CN(C)c1ccc2nc(-c3ccc([18F])cc3)sc2c1 What is its recorded SUV?
a: 2.4

q: Consider the compound shown here: Cc1ccc2nc(-c3ccc([18F])cc3)sc2c1 What is its recorded SUV?
a: 1.4

----------
Tested on: Heart
run_description: Drug level in NMRI mouse heart assessed as standard uptake value at 3.7 MBq/mL, iv after 60 mins by gamma counting
Format: ADME, organism-based
study_conditions: in vivo, 1 h
Can you tell me SUV for the items I'm about to list?
Field format: numeric only.

q: Param readout = SUV; param system = Heart; param query = Cc1ccc2nc(-c3ccc([18F])cc3)sc2c1 ; response: value
a: 0.2

q: Param readout = SUV; param system = Heart; param query = CNc1ccc2nc(-c3ccc([18F])cc3)sc2c1 ; response: value
a: 0.4

q: Param readout = SUV; param system = Heart; param query = Nc1ccc2nc(-c3ccc([18F])cc3)sc2c1 ; response: value
a: 0.2

q: Param readout = SUV; param system = Heart; param query = CN(C)c1ccc2nc(-c3ccc([18F])cc3)sc2c1 ; response: value
a: 0.5

q: Param readout = SUV; param system = Heart; param query = [11CH3]Nc1ccc(-c2nc3ccc(O)cc3s2)cc1 ; response: value
a: 0.7

----------
Tested on: Cerebellum
run_description: Drug level in NMRI mouse cerebellum assessed as standard uptake value at 3.7 MBq/mL, iv after 2 mins by gamma counting
Type: ADME, organism-based
study_conditions: in vivo
Kindly return true if reported SUV is no lower than 3; return false if it is lower.

q: Test whether the molecule CNc1ccc2nc(-c3ccc([18F])cc3)sc2c1 records SUV of 3 or higher.
a: true

q: Test whether the molecule CN(C)c1ccc2nc(-c3ccc([18F])cc3)sc2c1 records SUV of 3 or higher.
a: true

q: Test whether the molecule Cc1ccc2nc(-c3ccc([18F])cc3)sc2c1 records SUV of 3 or higher.
a: false

q: Test whether the molecule Nc1ccc2nc(-c3ccc([18F])cc3)sc2c1 records SUV of 3 or higher.
a: true

q: Test whether the molecule [11CH3]Nc1ccc(-c2nc3ccc(O)cc3s2)cc1 records SUV of 3 or higher.
a: false

----------
Can you tell me Drug uptake for the items I'm about to list?
run_description: Biodistribution in NMRI mouse urine at 3.7 MBq/mL, iv after 60 mins by gamma counting
Format: ADME, organism-based
study_conditions: in vivo, 1 h
Give your result in % as a bare value.

q: Consider the compound shown here: Cc1ccc2nc(-c3ccc([18F])cc3)sc2c1 What is its recorded Drug uptake?
a: 3.3

q: Consider the compound shown here: [11CH3]Nc1ccc(-c2nc3ccc(O)cc3s2)cc1 What is its recorded Drug uptake?
a: 24.4

q: Consider the compound shown here: Nc1ccc2nc(-c3ccc([18F])cc3)sc2c1 What is its recorded Drug uptake?
a: 4.9

q: Consider the compound shown here: CN(C)c1ccc2nc(-c3ccc([18F])cc3)sc2c1 What is its recorded Drug uptake?
a: 7.6

q: Consider the compound shown here: CNc1ccc2nc(-c3ccc([18F])cc3)sc2c1 What is its recorded Drug uptake?
a: 13

Values from ChEMBL document CHEMBL1154674
